Conditions: in water, 293.15 K
quantity: solubility (mole fraction)

[
  {
    "chemical_smiles": "COC(=O)c1ccnc(N)c1",
    "measured_value": 0.00178
  }
]

====

Conditions: in acetonitrile, 288.15 K

[
  {
    "chemical_smiles": "COC(=O)c1ccnc(N)c1",
    "solubility (mole fraction)": 0.00838
  }
]

====

Settings: in toluene, 303.15 K
quantity: solubility (mole fraction)

[
  {
    "chemical_smiles": "COC(=O)c1ccnc(N)c1",
    "quantity": "solubility (mole fraction)",
    "measured_value": 0.0208
  }
]

====

Conditions: in ethanol, 308.15 K

[
  {
    "chemical_smiles": "COC(=O)c1ccnc(N)c1",
    "solubility (mole fraction)": 0.00976
  }
]

====

Settings: in ethanol, 288.15 K

[
  {
    "chemical_smiles": "COC(=O)c1ccnc(N)c1",
    "solubility (mole fraction)": 0.0047
  }
]

====

Settings: in n-propanol, 313.15 K

[
  {
    "chemical_smiles": "COC(=O)c1ccnc(N)c1",
    "solubility (mole fraction)": 0.0163
  }
]

====

Details: in isopropanol, 293.15 K

[
  {
    "chemical_smiles": "COC(=O)c1ccnc(N)c1",
    "solubility (mole fraction)": 0.00728
  }
]

====

Settings: in toluene, 288.15 K
quantity: solubility (mole fraction)

[
  {
    "chemical_smiles": "COC(=O)c1ccnc(N)c1",
    "measured_value": 0.0122
  }
]

====

Conditions: in isopropanol, 323.15 K
quantity: solubility (mole fraction)

[
  {
    "chemical_smiles": "COC(=O)c1ccnc(N)c1",
    "quantity": "solubility (mole fraction)",
    "measured_value": 0.019
  }
]

====

Details: in methanol, 303.15 K
quantity: solubility (mole fraction)

[
  {
    "chemical_smiles": "COC(=O)c1ccnc(N)c1",
    "measured_value": 0.00453
  }
]

====

Settings: in DMF, 293.15 K

[
  {
    "chemical_smiles": "COC(=O)c1ccnc(N)c1",
    "solubility (mole fraction)": 0.0126
  }
]

====

Settings: in acetonitrile, 283.15 K

[
  {
    "chemical_smiles": "COC(=O)c1ccnc(N)c1",
    "solubility (mole fraction)": 0.00665
  }
]

====

Conditions: in methanol, 293.15 K

[
  {
    "chemical_smiles": "COC(=O)c1ccnc(N)c1",
    "solubility (mole fraction)": 0.00312
  }
]

====

Conditions: in acetonitrile, 278.15 K

[
  {
    "chemical_smiles": "COC(=O)c1ccnc(N)c1",
    "solubility (mole fraction)": 0.00539
  }
]

====

Details: in toluene, 298.15 K
quantity: solubility (mole fraction)

[
  {
    "chemical_smiles": "COC(=O)c1ccnc(N)c1",
    "measured_value": 0.0177
  }
]

====

Details: in isopropanol, 278.15 K

[
  {
    "chemical_smiles": "COC(=O)c1ccnc(N)c1",
    "solubility (mole fraction)": 0.00385
  }
]

====

Settings: in ethanol, 313.15 K
quantity: solubility (mole fraction)

[
  {
    "chemical_smiles": "COC(=O)c1ccnc(N)c1",
    "measured_value": 0.0114
  }
]

====

Conditions: in DMF, 288.15 K
quantity: solubility (mole fraction)

[
  {
    "chemical_smiles": "COC(=O)c1ccnc(N)c1",
    "quantity": "solubility (mole fraction)",
    "measured_value": 0.0105
  }
]
